For each record, write down the corresponding Tissue uptake: Salivary glands.
test system: non-tumor-bearing immunocompetent FVB mice; test: Biodistribution of lanthanide chloride salts LnCl3 (multiplexed ICP-MS); assay type: in vivo; settings: 96 h p.i., non-tumor-bearing mice
Answers are plain numbers, in % ID/g.

> print(dat)
                             molecule  recorded.number
1  [Cl][Lu]([Cl])[Cl] [[^175Lu]LuCl3]             0.50

From here, focus on the item given below.
Find the recorded Tissue uptake: Salivary glands belonging to [Cl][Gd]([Cl])[Cl] [[^157Gd]GdCl3] and report it. 0.60

* * *

tested on: non-tumor-bearing immunocompetent FVB mice; test: Biodistribution of lanthanide chloride salts LnCl3 (multiplexed ICP-MS); type: in vivo; settings: 1 h p.i., non-tumor-bearing mice
Observed property: Tissue uptake: Pancreas (% ID/g)
Answers are plain numbers, in % ID/g.

> print(dat)
                                   molecule        observed.property  readout.units  recorded.number
1        [Cl][Tb]([Cl])[Cl] [[^159Tb]TbCl3]  Tissue uptake: Pancreas         % ID/g              2.2
2  [Cl-].[Cl-].[Cl-].[Eu+3] [[^153Eu]EuCl3]  Tissue uptake: Pancreas         % ID/g              2.2
3        [Cl][Gd]([Cl])[Cl] [[^157Gd]GdCl3]  Tissue uptake: Pancreas         % ID/g              2.2

Turning now to a further record.
Suppose we examine the molecule [Cl][Lu]([Cl])[Cl] [[^175Lu]LuCl3] ; what Tissue uptake: Pancreas value has been reported? 2.6

* * *

tested on: non-tumor-bearing immunocompetent FVB mice; experiment: Biodistribution of lanthanide chloride salts LnCl3 (multiplexed ICP-MS); assay type: in vivo; settings: 96 h p.i., estimated ratios (organ <0.5% ID/g)
Marks after values point to notes of the source that are not given here.
Assign Organ ratios: Blood-to-bone to each entry below.

> print(dat)
                                   molecule                           target.of.assay   result
1        [Cl][Lu]([Cl])[Cl] [[^175Lu]LuCl3]  non-tumor-bearing immunocompetent FVB mice  <0.01^*
2  [Cl-].[Cl-].[Cl-].[Eu+3] [[^153Eu]EuCl3]  non-tumor-bearing immunocompetent FVB mice  <0.03^*
3        [Cl][Tb]([Cl])[Cl] [[^159Tb]TbCl3]  non-tumor-bearing immunocompetent FVB mice  <0.03^*

Pending molecule:
// returns reported Organ ratios: Blood-to-bone for input [Cl][Gd]([Cl])[Cl] [[^157Gd]GdCl3] <0.03^*

* * *

system: non-tumor-bearing immunocompetent FVB mice; assay: Biodistribution of lanthanide chloride salts LnCl3 (multiplexed ICP-MS); assay type: in vivo; conditions: 24 h p.i., non-tumor-bearing mice
Observed property: Tissue uptake: Bone (% ID/g)
Numbers only, in % ID/g.

Field: Tissue uptake: Bone. Fill in for each record below.
1. [Cl][Gd]([Cl])[Cl] [[^157Gd]GdCl3]
2. [Cl][Lu]([Cl])[Cl] [[^175Lu]LuCl3]
3. [Cl][Tb]([Cl])[Cl] [[^159Tb]TbCl3]
4. [Cl-].[Cl-].[Cl-].[Eu+3] [[^153Eu]EuCl3]

14
25
15
14

* * *

tested on: non-tumor-bearing immunocompetent FVB mice; experiment: Biodistribution of lanthanide chloride salts LnCl3 (multiplexed ICP-MS); assay type: in vivo; details: 96 h p.i., non-tumor-bearing mice
Observed property: Tissue uptake: Muscle

Look over these answered cases.
> print(dat)
                             compound              result
1  [Cl][Gd]([Cl])[Cl] [[^157Gd]GdCl3]  0.51 ± 0.12 % ID/g
2  [Cl][Tb]([Cl])[Cl] [[^159Tb]TbCl3]         <0.5 % ID/g
3  [Cl][Lu]([Cl])[Cl] [[^175Lu]LuCl3]         <0.5 % ID/g

Now consider the entry below.
What value of measured Tissue uptake: Muscle is listed for [Cl-].[Cl-].[Cl-].[Eu+3] [[^153Eu]EuCl3] ? <0.5 % ID/g

* * *

test system: non-tumor-bearing immunocompetent FVB mice; experiment: Biodistribution of lanthanide chloride salts LnCl3 (multiplexed ICP-MS); format: in vivo; conditions: 24 h p.i., non-tumor-bearing mice
Observed property: Tissue uptake: Stomach (% ID/g)
Give bare numbers, in % ID/g.

> print(dat)
                                   compound  recorded.number
1  [Cl-].[Cl-].[Cl-].[Eu+3] [[^153Eu]EuCl3]              1.9
2        [Cl][Lu]([Cl])[Cl] [[^175Lu]LuCl3]              1.8

For each of the items listed, what is its Tissue uptake: Stomach?
1. [Cl][Tb]([Cl])[Cl] [[^159Tb]TbCl3]
2. [Cl][Gd]([Cl])[Cl] [[^157Gd]GdCl3]

1: 1.8; 2: 2.6

* * *

Exercise: for every item that follows, state its recorded Tissue uptake: Spleen.
system: non-tumor-bearing immunocompetent FVB mice; assay: Biodistribution of lanthanide chloride salts LnCl3 (multiplexed ICP-MS); assay type: in vivo; conditions: 24 h p.i., non-tumor-bearing mice
One number for each entry, in % ID/g.

Sample records with Tissue uptake: Spleen:
> print(dat)
                                   molecule      observed.property  recorded.number
1        [Cl][Gd]([Cl])[Cl] [[^157Gd]GdCl3]  Tissue uptake: Spleen              5.7
2  [Cl-].[Cl-].[Cl-].[Eu+3] [[^153Eu]EuCl3]  Tissue uptake: Spleen              5.6

Okay, here is my list. What is Tissue uptake: Spleen for each of these?
1. [Cl][Lu]([Cl])[Cl] [[^175Lu]LuCl3]
2. [Cl][Tb]([Cl])[Cl] [[^159Tb]TbCl3]

3.5
5.0
